Here the recorded pIC50 is given for each entry.
Biological target: pERK1/2 (Thr202/Tyr204), NCI-1H441 (KRAS G12V) (Homo sapiens, UniProt P01116, G12V)
Construct: pERK1/2 HTRF read-out
Sequence (P01116 1-188 isoform P01116-2 G12V): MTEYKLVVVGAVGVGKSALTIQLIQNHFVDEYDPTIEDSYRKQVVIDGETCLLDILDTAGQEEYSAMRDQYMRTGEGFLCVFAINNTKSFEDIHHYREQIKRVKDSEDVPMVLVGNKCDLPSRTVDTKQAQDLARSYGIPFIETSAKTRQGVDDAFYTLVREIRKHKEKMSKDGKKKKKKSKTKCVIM
Assay: Assay of intracellular pERK1/2 (Thr202/Tyr204) phosphorylation in NCI-H441 cells (KRAS G12V)
Assay type: cell-based
Conditions: pERK1/2, 2 days, read-out: NCI-H441 (KRAS G12V) IC50
pIC50: −log10 of the molar value.
measured_metric: pIC50

compound	test_system	measured_metric	value_relation_sign	reported_measurement
Cc1c(F)c(N)cc(-c2nc3c4c(nc(OC[C@@]56CCCN5C[C@H](F)C6)nc4c2F)N([C@H](C)c2cn(C)nc2N)CCO3)c1C(F)(F)F (single isomer, unassigned)	pERK1/2 (Thr202/Tyr204), NCI-1H441 (KRAS G12V) (Homo sapiens, UniProt P01116, G12V)	pIC50	=	7.19
[2H]C1([2H])CC[C@@]2(C([2H])([2H])Oc3nc4c5c(nc(-c6cc(N)cc(Cl)c6C(F)(F)F)c(F)c5n3)OCCN4C(C)c3cccnc3N)C[C@@H](F)CN12 (stereo partly drawn)	pERK1/2 (Thr202/Tyr204), NCI-1H441 (KRAS G12V) (Homo sapiens, UniProt P01116, G12V)	pIC50	=	9.10
CC(c1cccnc1N)N1c2nc(OC[C@@]34CCCN3C[C@H](F)C4)nc3c(F)c(-c4cc(N)cc(Cl)c4C4CC4)nc(c23)OC[C@@H]1C (stereo partly drawn)	pERK1/2 (Thr202/Tyr204), NCI-1H441 (KRAS G12V) (Homo sapiens, UniProt P01116, G12V)	pIC50	=	9.22
[2H]C1([2H])Oc2nc(-c3cc(N)c(F)c(C)c3C(F)(F)F)c(F)c3nc(OC[C@@H]4C[C@@H](F)CN4C)nc(c23)N(C(C)c2cccnc2N)C1([2H])[2H] (single isomer, unassigned) [Compound 203]	pERK1/2 (Thr202/Tyr204), NCI-1H441 (KRAS G12V) (Homo sapiens, UniProt P01116, G12V)	pIC50	<	7.00
[2H]C1([2H])CN(C(C)c2cccnc2N)c2nc(OC[C@@]34CCCN3C[C@H](F)C4)nc3c(F)c(-c4cc(N)c(F)c(C)c4C(F)(F)F)nc(c23)O1 (single isomer, unassigned) [Compound 184]	pERK1/2 (Thr202/Tyr204), NCI-1H441 (KRAS G12V) (Homo sapiens, UniProt P01116, G12V)	pIC50	=	7.89
CC(c1cccnc1N)N1CCOc2nc(-c3cc(N)c(F)cc3C(F)(F)F)c(F)c3nc(OC[C@@]45CCCN4C[C@H](F)C5)nc1c23 (stereo partly drawn) [Compound 135]	pERK1/2 (Thr202/Tyr204), NCI-1H441 (KRAS G12V) (Homo sapiens, UniProt P01116, G12V)	pIC50	=	8.52
CC(c1cccnc1N)N1CCOc2nc(-c3cc(N)cc(F)c3C(F)(F)F)c(F)c3nc(OC[C@@]45CCCN4C[C@H](F)C5)nc1c23 (stereo partly drawn) [Compound 82]	pERK1/2 (Thr202/Tyr204), NCI-1H441 (KRAS G12V) (Homo sapiens, UniProt P01116, G12V)	pIC50	=	9.10
[2H][C@]1(F)CN2CCC[C@@]2(COc2nc3c4c(nc(-c5cc(N)c(F)c(C)c5C(F)(F)F)c(F)c4n2)OCCN3C(C)c2cccnc2N)C1 (single isomer, unassigned)	pERK1/2 (Thr202/Tyr204), NCI-1H441 (KRAS G12V) (Homo sapiens, UniProt P01116, G12V)	pIC50	=	9.30
Cc1cc(N)cc(-c2nc3c4c(nc(OCC5CCOCC5)nc4c2F)N([C@@H](C)c2cccnc2N)CCO3)c1C(F)(F)F (single isomer, unassigned)	pERK1/2 (Thr202/Tyr204), NCI-1H441 (KRAS G12V) (Homo sapiens, UniProt P01116, G12V)	pIC50	<	7.00
Cc1cc(N)nc(-c2nc3c4c(nc(OC[C@@]56CCCN5C[C@H](F)C6)nc4c2F)N(C(C)c2cccnc2N)[C@@H](C)CO3)c1 (stereo partly drawn)	pERK1/2 (Thr202/Tyr204), NCI-1H441 (KRAS G12V) (Homo sapiens, UniProt P01116, G12V)	pIC50	<	7.00
C[C@H](c1cccnc1N)N1CCOc2nc(-c3c(C(F)(F)F)ccc4[nH]ncc34)c(F)c3nc(OC[C@@H]4CCN4CC(F)F)nc1c23 (single isomer, unassigned)	pERK1/2 (Thr202/Tyr204), NCI-1H441 (KRAS G12V) (Homo sapiens, UniProt P01116, G12V)	pIC50	=	6.19
Cc1cc(N)cc(-c2nc3c4c(nc(OC[C@@H]5CCCN5C5COC5)nc4c2F)N(C(C)c2cccnc2N)CCO3)c1C(F)(F)F (single isomer, unassigned) [Compound 161]	pERK1/2 (Thr202/Tyr204), NCI-1H441 (KRAS G12V) (Homo sapiens, UniProt P01116, G12V)	pIC50	=	7.32
CC(c1cccnc1N)N1CCOc2nc(-c3cc(N)cc(F)c3C(F)(F)F)c(F)c3nc(OC[C@@]45CCCN4C[C@H](F)C5)nc1c23 (single isomer, unassigned) [Compound 88]	pERK1/2 (Thr202/Tyr204), NCI-1H441 (KRAS G12V) (Homo sapiens, UniProt P01116, G12V)	pIC50	=	9.00
CC(c1cccnc1N)N1CCOc2nc(-c3cc(N)c(F)cc3C(F)(F)F)c(F)c3nc(OC[C@@]45CCCN4C[C@H](F)C5)nc1c23 (single isomer, unassigned) [Compound 145]	pERK1/2 (Thr202/Tyr204), NCI-1H441 (KRAS G12V) (Homo sapiens, UniProt P01116, G12V)	pIC50	=	7.29
Cc1cc(N)cc(-c2nc3c4c(nc(OC[C@@H]5CCCN5C)nc4c2F)N(C(C)c2cccnc2N)CCO3)c1C(F)(F)F (single isomer, unassigned) [Compound 77]	pERK1/2 (Thr202/Tyr204), NCI-1H441 (KRAS G12V) (Homo sapiens, UniProt P01116, G12V)	pIC50	=	7.43
CC(c1cccnc1N)N1c2nc(OC[C@@]34CCCN3C[C@H](F)C4)nc3c(F)c(-c4cc(O)cc(Cl)c4C#N)nc(c23)OC[C@@H]1C (stereo partly drawn)	pERK1/2 (Thr202/Tyr204), NCI-1H441 (KRAS G12V) (Homo sapiens, UniProt P01116, G12V)	pIC50	=	7.01
Cc1c(F)c(N)cc(-c2nc3c4c(nc(OC[C@@]56CCCN5C[C@H](F)C6)nc4c2F)N(C(C)c2cccnc2N)CCO3)c1Cl (stereo partly drawn)	pERK1/2 (Thr202/Tyr204), NCI-1H441 (KRAS G12V) (Homo sapiens, UniProt P01116, G12V)	pIC50	=	8.40
CC(c1cccnc1N)N1CCOc2nc(-c3cc(N)c(F)c(Cl)c3Cl)c(F)c3nc(OC[C@@]45CCCN4C[C@H](F)C5)nc1c23 (stereo partly drawn)	pERK1/2 (Thr202/Tyr204), NCI-1H441 (KRAS G12V) (Homo sapiens, UniProt P01116, G12V)	pIC50	=	8.52
C[C@H](c1cccnc1N)N1c2nc(OC[C@@H]3C[C@@H](F)CN3C)nc3c(F)c(-c4cc(N)cc(Cl)c4C(F)(F)F)nc(c23)OC[C@@H]1C (single isomer, unassigned)	pERK1/2 (Thr202/Tyr204), NCI-1H441 (KRAS G12V) (Homo sapiens, UniProt P01116, G12V)	pIC50	<	7.00
CCc1c(F)ccc2cc(O)cc(-c3nc4c5c(nc(OC[C@@]67CCCN6C[C@H](F)C7)nc5c3F)N(C(C)c3cccnc3N)[C@@H](C)CO4)c12 (single isomer, unassigned) [Compound 279]	pERK1/2 (Thr202/Tyr204), NCI-1H441 (KRAS G12V) (Homo sapiens, UniProt P01116, G12V)	pIC50	=	9.40
CC(c1cccnc1N)N1CCOc2nc(-c3cc(O)cc(Cl)c3C3CC3)c(F)c3nc(OC[C@@H]4CCCN4C)nc1c23 (single isomer, unassigned) [Compound 31]	pERK1/2 (Thr202/Tyr204), NCI-1H441 (KRAS G12V) (Homo sapiens, UniProt P01116, G12V)	pIC50	<	6.00

Data origin: patent US20260356851A1
